# TESTED_SYSTEM: BaF3 cell lines stably transfected with kinase EGFR Del/T790M (Homo sapiens, UniProt P00533, T790M, cells depend on it, form not given)
# Sequence (P00533 with tags, fused parts or gaps DEL746-750/T790M, form open): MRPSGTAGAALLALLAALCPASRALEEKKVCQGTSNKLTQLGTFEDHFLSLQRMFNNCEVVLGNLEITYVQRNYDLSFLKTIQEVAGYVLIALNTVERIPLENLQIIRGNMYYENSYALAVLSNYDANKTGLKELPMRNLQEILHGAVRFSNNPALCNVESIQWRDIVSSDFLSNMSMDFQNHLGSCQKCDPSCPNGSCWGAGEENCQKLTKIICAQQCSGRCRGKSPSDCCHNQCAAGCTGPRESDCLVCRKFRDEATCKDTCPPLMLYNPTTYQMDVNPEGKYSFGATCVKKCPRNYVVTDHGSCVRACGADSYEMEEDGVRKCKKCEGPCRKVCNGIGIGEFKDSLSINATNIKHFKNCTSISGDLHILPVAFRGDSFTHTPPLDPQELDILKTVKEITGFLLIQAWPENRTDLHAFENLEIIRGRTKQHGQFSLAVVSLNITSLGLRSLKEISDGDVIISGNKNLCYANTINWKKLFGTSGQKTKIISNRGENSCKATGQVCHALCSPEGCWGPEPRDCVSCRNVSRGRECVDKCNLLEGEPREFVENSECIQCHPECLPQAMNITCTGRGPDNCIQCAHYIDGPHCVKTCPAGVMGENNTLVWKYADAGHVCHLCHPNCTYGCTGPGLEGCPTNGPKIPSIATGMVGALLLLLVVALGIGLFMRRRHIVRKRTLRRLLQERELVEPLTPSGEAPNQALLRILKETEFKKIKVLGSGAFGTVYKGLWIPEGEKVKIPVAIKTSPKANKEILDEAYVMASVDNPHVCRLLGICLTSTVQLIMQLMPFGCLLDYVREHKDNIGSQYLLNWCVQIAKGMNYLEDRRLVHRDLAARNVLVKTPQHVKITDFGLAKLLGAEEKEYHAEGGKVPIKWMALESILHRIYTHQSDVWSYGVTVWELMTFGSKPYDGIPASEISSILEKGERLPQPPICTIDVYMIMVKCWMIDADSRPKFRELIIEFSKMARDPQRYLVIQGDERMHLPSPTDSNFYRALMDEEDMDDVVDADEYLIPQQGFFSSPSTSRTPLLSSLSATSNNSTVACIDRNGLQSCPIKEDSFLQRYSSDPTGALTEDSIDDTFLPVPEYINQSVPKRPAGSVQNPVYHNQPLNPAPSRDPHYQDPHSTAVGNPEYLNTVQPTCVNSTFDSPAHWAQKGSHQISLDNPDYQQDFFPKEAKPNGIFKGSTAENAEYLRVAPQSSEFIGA
# EXPERIMENT_NOTES: Growth inhibition of BaF3 cell line stably transfected with kinase EGFR Del/T790M (MTS)
# Assay type: cell-based
# MEASUREMENT_CONDITIONS: 48 h, read-out: growth inhibitory activity IC50, Del/T790M
Listing of entries alongside the reported GI50.
PROPERTY: GI50

COMPOUND	VALUE_MEASURED
C=Cc1cnc(Nc2ccc(N3CCC(N4CCN(C)CC4)CC3)c(F)c2F)nc1Nc1ccc2nccnc2c1S(=O)(=O)NC	50 to 500 nM
C=Cc1cnc(Nc2cc(C)c(N3CCC(N4CCN(C)CC4)CC3)cc2OC)nc1Nc1ccc2nccnc2c1S(=O)(=O)C(C)C	50 to 500 nM
C=C(C)c1cnc(Nc2cc(CC)c(N3CCC(N4CCN(C)CC4)CC3)cc2OC)nc1Nc1ccc2nccnc2c1N(C)S(C)(=O)=O	≤ 50 nM
C=Cc1cnc(Nc2cc(CC)n(C)n2)nc1Nc1ccc2nccnc2c1N(C)S(C)(=O)=O	50 to 500 nM
C=Cc1cnc(Nc2cc(CC)c(N3CCC(N4CCN(C)CC4)CC3)cc2OC)nc1Nc1ccc2nccnc2c1S(C)(=O)=O	50 to 500 nM
C=Cc1cnc(Nc2cc(CC)c(N3CCC(N4CCN(C)CC4)CC3)cc2OC)nc1Nc1ccc2nccnc2c1S(=O)(=O)C(C)C	50 to 500 nM
C=Cc1cnc(Nc2cc(CC)c(N3CCC(N4CCN(C)CC4)CC3)cc2OC)nc1Nc1ccc2nccnc2c1N(C)S(C)(=O)=O [II-53]	50 to 500 nM
C=C(C)c1cnc(Nc2cn[nH]c2)nc1Nc1ccc2nccnc2c1N(C)S(C)(=O)=O	50 to 500 nM
CCc1cc(Nc2ncc(/C=C/c3ccccc3)c(Nc3ccc4nccnc4c3N(C)S(C)(=O)=O)n2)c(OC)cc1N1CCC(N2CCN(C)CC2)CC1	500 to 2500 nM
C=Cc1cnc(Nc2cc(C)c(N3CCC(N4CCN(C)CC4)CC3)cc2OC)nc1Nc1ccc2nccnc2c1S(=O)(=O)NC(C)C	50 to 500 nM
C=C(C)c1cnc(Nc2cc(C)c(N3CCC(N4CCN(C)CC4)CC3)nc2OC)nc1Nc1ccc2nccnc2c1P(C)(C)=O	50 to 500 nM
C=Cc1cnc(Nc2cc(C3CC3)c(N3CCC(N4CCN(C)CC4)CC3)cc2OC)nc1Nc1ccc2nccnc2c1NS(C)(=O)=O	≤ 50 nM
C=C(C)c1cnc(Nc2ccc(N3CCC(N4CCN(C)CC4)CC3)c(CC)c2)nc1Nc1ccc2nccnc2c1N(C)S(C)(=O)=O	≤ 50 nM
CCc1cc(Nc2ncc(/C=C/c3ccccc3)c(Nc3ccc4nccnc4c3P(C)(C)=O)n2)c(OC)cc1N1CCC(N2CCN(C)CC2)CC1	50 to 500 nM
CCc1cc(Nc2ncc(C3=CCCC3)c(Nc3ccc4nccnc4c3P(C)(C)=O)n2)c(OC)cc1N1CCC(N2CCN(C)CC2)CC1	50 to 500 nM
C=Cc1cnc(Nc2ccc3c(c2)CCN(C)CC3)nc1Nc1ccc2nccnc2c1P(C)(C)=O	50 to 500 nM
C=Cc1cnc(Nc2cc(C(C)C)c(N3CCC(N4CCN(C)CC4)CC3)cc2OC)nc1Nc1ccc2nccnc2c1NS(C)(=O)=O	50 to 500 nM
C=Cc1cnc(Nc2cc(C3CC3)c(N3CCC(N4CCN(C)CC4)CC3)cc2OC)nc1Nc1ccc2nccnc2c1S(=O)(=O)NC	50 to 500 nM
C=Cc1cnc(Nc2cc(CC)c(N3CCC(N(C)C)CC3)cc2OC)nc1Nc1ccc2nccnc2c1NS(C)(=O)=O	≤ 50 nM
C=Cc1cnc(Nc2cn(CC)nc2C)nc1Nc1ccc2nccnc2c1N(C)S(C)(=O)=O [II-67]	50 to 500 nM
C=Cc1cnc(Nc2ccn(C(C)C)n2)nc1Nc1ccc2nccnc2c1N(C)S(C)(=O)=O	500 to 2500 nM
C=Cc1cnc(Nc2ccc(N3CCC(N4CCN(C)CC4)CC3)c(CC)c2)nc1Nc1ccc2nccnc2c1P(C)(C)=O	50 to 500 nM
C=Cc1cnc(Nc2cc(CC)c(N3CCC(N4CCN(C)CC4)CC3)nc2OC)nc1Nc1ccc2nccnc2c1S(C)(=O)=O	500 to 2500 nM
C=Cc1cnc(Nc2cc(CC)c(N3CCC(N4CCN(C)CC4)CC3)cc2OC)nc1Nc1ccc2nccnc2c1S(=O)(=O)NC	50 to 500 nM
C=Cc1cnc(Nc2cc(C3CC3)c(N3CCC(N4CCN(C)CC4)CC3)cc2OC)nc1Nc1ccc2nccnc2c1N(C)S(C)(=O)=O	≤ 50 nM
C=Cc1cnc(Nc2cc(C(C)C)c(N3CCC(N4CCN(C)CC4)CC3)cc2OC)nc1Nc1ccc2nccnc2c1S(=O)(=O)NC	50 to 500 nM
C=Cc1cnc(Nc2ccc(N3CCC(N4CCN(C)CC4)CC3)cc2OC)nc1Nc1ccc2nccnc2c1N(C)S(C)(=O)=O	50 to 500 nM
C=Cc1cnc(Nc2cc(C3CC3)c(N3CCC(N4CCN(C)CC4)CC3)cc2OC)nc1Nc1ccc2nccnc2c1S(C)(=O)=O	50 to 500 nM
